B1: glmS ribozyme (parent)
chain: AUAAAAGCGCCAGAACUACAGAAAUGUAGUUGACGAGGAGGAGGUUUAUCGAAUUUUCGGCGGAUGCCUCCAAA

# Variants of: B1
# TEST PROTOCOL: kcat; higher = faster cleavage; RNA array
# COND: with glucosamine-6-phosphate
This sample holds only a part of the variants without activity.
RECORDED ENDPOINT: kcat (s⁻¹)
Report the figure in s⁻¹ without appending any unit label.

Some solved cases for reference:
VARIANT ANNOTATION	kcat / s⁻¹
U30A U31C	0.00588
A15U G29A	0.00194
G13U A33U	1.31e-05
G37A C71A	0.000462
A39G G44U	0.00229
C50A C67U	1.84e-05
C10G U49A	1.12e-05
A15C A39C	0.00146

Req: Look up kcat for this variant: U30G G37C
Resp: 1.26e-05

Req: Would you mind telling me what kcat value was observed for U45G A64G ?
Resp: 0.00935

Req: Looking for the measured kcat of G38U C58U U69G , can you help?
Resp: 0.000168

Req: Report kcat for A39U U65G please.
Resp: 0.00369

Req: Need kcat, item A39U U56G
Resp: 0.0257

Req: Fill in: kcat of A48U C71U is ___
Resp: 0.000562

Req: Any idea what its kcat is? The variant is C10A A12C U56A
Resp: 0.000168

Req: What value of measured kcat is listed for A14U U31C ?
Resp: 0.00342

Req: So what does the record say about kcat for A33C G66U ?
Resp: 2.18e-05

Req: Looking for the measured kcat of G41A A53U , can you help?
Resp: 0.000693

Req: Give its kcat value. Item: G13A
Resp: 0.00142

Req: For the variant C11U C71A , what kcat is on record?
Resp: 0.000412

Req: Can you look up the measured kcat of C8A C71G for me?
Resp: 1.09e-05

Req: # get_value(readout='kcat', item= A12U U31C U47G )
Resp: 0.00222

Req: Need kcat of G59U C67U , thanks.
Resp: 2.54e-05

Req: Param item = U55G U69A ; retrieve measured kcat.
Resp: 0.000144

Req: Quick check: kcat of C11A ?
Resp: 0.000291

Req: What value of kcat has been reported for the following variant? C16A U30C
Resp: 2.39e-05
